Source of measurements: patent US5286733A

Recorded inhibition at 10 µM by entry
# TARGET_OR_TEST_SYSTEM: sigma receptors (Cavia porcellus, UniProt Q60492)
# Construct: Brain tissue was prepared from male Hartley guinea pigs; tissue Hazelton Labs, Denver, Pa; (animals); host or cells: guinea pig brain membranes
# Sequence (Q60492 whole entry): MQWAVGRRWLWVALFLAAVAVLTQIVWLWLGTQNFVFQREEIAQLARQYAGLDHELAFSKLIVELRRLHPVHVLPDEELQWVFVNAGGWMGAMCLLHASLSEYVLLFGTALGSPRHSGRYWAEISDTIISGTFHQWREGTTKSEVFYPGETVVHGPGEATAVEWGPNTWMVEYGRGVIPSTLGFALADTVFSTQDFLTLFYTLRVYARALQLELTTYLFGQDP
# ASSAY_COMMENT: sigma receptor binding activity, [3H]-(+)-pentazocine binding to guinea pig brain membranes
# Set-up: species or system male Hartley guinea pigs
# PROTOCOL_CONDITIONS: at 10 μM; guinea pig brain membranes; approximately 0.5 nM [3H]-(+)-pentazocine; 37° C., 150 min; read-out: Percent Inhibition (of [3H]-(+)-pentazocine binding)
ASSAY_ENDPOINT: inhibition at 10 µM (%)

INSERT INTO results (compound, assay_endpoint, endpoint_value) VALUES
  ('C[C@@H]1CCN[C@@H](C)[C@]1(C)CCC(=O)CCC1CCCC1 (relative stereo)', 'inhibition at 10 µM', 96),
  ('CC1N(CC2(O)CC2)CCC2CCCCC21CCC(=O)CCC1CCCC1 (centres unmarked)', 'inhibition at 10 µM', 84),
  ('C[C@@H]1CCN(CC2(O)CC2)[C@@H](C)[C@]1(C)CCC(=O)CCC1CCCC1 (relative stereo)', 'inhibition at 10 µM', 98),
  ('CCOC(=O)CC[C@]1(C)[C@H](C)CCN(C)[C@H]1C (relative stereo)', 'inhibition at 10 µM', 70),
  ('CCOC(=O)CC[C@]1(C)[C@H](C)CCN(Cc2ccccc2)[C@H]1C (relative stereo)', 'inhibition at 10 µM', 99);
